# EXPERIMENT: Serum pharmacokinetics after intravenous polymyxin B liposomes or aqueous solution (USP)
# Type: in vivo, Swiss Webster mice
# MEASUREMENT SETUP: female, ND4 Swiss Webster, mouse, in vivo, iv, 3 mg/kg, serum, mice, IV polymyxin B liposomes approx. 3 mg/kg, n = 4, normalized by dose; read-out: AUC0-6 h
# Procedure: The animal protocol was approved by the University of Houston Institutional Animal Care and Use Committee. The animals received food and water ad libitum. […] Four major polymyxin B components in serum and epithelial lining fluid samples were assayed by a validated UPLC-MS/MS method. […] Ten μl of supernatant was injected into the UPLC-MS/MS for quantitative analysis. […]
Where a SMILES comes first, the peptide text is derived from it. Bridges are numbered along the chain shown (N, C = ends). [ ]: non-standard residue; d: D form. The star is where a group is joined. X1 = CC[C@H](C)CCCCC(=O)*; Dab = NCC[C@H](N)C(=O)O
RESULT TYPE: AUC(0-t) (ng·h/mL)
Enter your answer as a number in ng·h/mL; do not include the unit.

Any idea what its AUC(0-t) is? The molecule is CC[C@H](C)CCCCC(=O)N[C@@H](CCN)C(=O)N[C@H](C(=O)N[C@@H](CCN)C(=O)N[C@H]1CCNC(=O)[C@H]([C@@H](C)O)NC(=O)[C@H](CCN)NC(=O)[C@H](CCN)NC(=O)[C@H](CC(C)C)NC(=O)[C@@H](Cc2ccccc2)NC(=O)[C@H](CCN)NC1=O)[C@@H](C)O [PB1, polymyxin B1] (X1-[Dab]T[Dab][Dab][Dab][dF]L[Dab][Dab]T; lactam 4-C)
4770

====

# EXPERIMENT: Epithelial lining fluid (ELF) pharmacokinetics after intravenous polymyxin B liposomes or aqueous solution (USP)
# Format: in vivo, Swiss Webster mice
# MEASUREMENT SETUP: female, ND4 Swiss Webster, mouse, in vivo, iv, 3 mg/kg, ELF, mice, IV 3 mg/kg polymyxin solution (USP), n = 4; read-out: AUC0-6 h, epithelial lining fluid
Where a SMILES comes first, the peptide text is derived from it. Bridges are numbered along the chain shown (N, C = ends). [ ]: non-standard residue; d: D form. The star is where a group is joined. X1 = CC[C@H](C)CCCCC(=O)*; Dab = NCC[C@H](N)C(=O)O
RESULT TYPE: AUC(0-t) (ng·h/mL)
Please reply with the bare figure in ng·h/mL and do not write the unit itself.

Please look up its AUC(0-t): CC[C@H](C)CCCCC(=O)N[C@@H](CCN)C(=O)N[C@H](C(=O)N[C@@H](CCN)C(=O)N[C@H]1CCNC(=O)[C@H]([C@@H](C)O)NC(=O)[C@H](CCN)NC(=O)[C@H](CCN)NC(=O)[C@H](CC(C)C)NC(=O)[C@@H](Cc2ccccc2)NC(=O)[C@H](CCN)NC1=O)[C@@H](C)O [PB1, polymyxin B1] (X1-[Dab]T[Dab][Dab][Dab][dF]L[Dab][Dab]T; lactam 4-C)
1570

====

# EXPERIMENT: Epithelial lining fluid (ELF) pharmacokinetics after intravenous polymyxin B liposomes or aqueous solution (USP)
# Format: in vivo, Swiss Webster mice
# MEASUREMENT SETUP: female, ND4 Swiss Webster, mouse, in vivo, iv, 3 mg/kg, ELF, mice, IV 3 mg/kg polymyxin liposome, n = 4; read-out: AUC0-6 h, epithelial lining fluid
# Procedure: The animal protocol was approved by the University of Houston Institutional Animal Care and Use Committee. The animals received food and water ad libitum. […] Four major polymyxin B components in serum and epithelial lining fluid samples were assayed by a validated UPLC-MS/MS method. […] Ten μl of supernatant was injected into the UPLC-MS/MS for quantitative analysis. […]
Where a SMILES comes first, the peptide text is derived from it. Bridges are numbered along the chain shown (N, C = ends). [ ]: non-standard residue; d: D form. The star is where a group is joined. X1 = CC[C@H](C)CCCCC(=O)*; Dab = NCC[C@H](N)C(=O)O
RESULT TYPE: AUC(0-t) (ng·h/mL)
Could you give me the number in ng·h/mL? Just the number is fine.

Could you share which AUC(0-t) value was measured for CC[C@H](C)CCCCC(=O)N[C@@H](CCN)C(=O)N[C@H](C(=O)N[C@@H](CCN)C(=O)N[C@H]1CCNC(=O)[C@H]([C@@H](C)O)NC(=O)[C@H](CCN)NC(=O)[C@H](CCN)NC(=O)[C@H](CC(C)C)NC(=O)[C@@H](Cc2ccccc2)NC(=O)[C@H](CCN)NC1=O)[C@@H](C)O [PB1, polymyxin B1] (X1-[Dab]T[Dab][Dab][Dab][dF]L[Dab][Dab]T; lactam 4-C) ?
9750

====

# EXPERIMENT: Kidney exposure after IV polymyxin liposome or solution (USP)
# Format: in vivo, mice
# MEASUREMENT SETUP: female, ND4 Swiss Webster, mouse, in vivo, iv, 3 mg/kg, kidney, mice, IV 3 mg/kg polymyxin liposome, n = 24; read-out: AUC0-6 h, kidney
Where a SMILES comes first, the peptide text is derived from it. Bridges are numbered along the chain shown (N, C = ends). [ ]: non-standard residue; d: D form. The star is where a group is joined. X1 = CC[C@H](C)CCCCC(=O)*; Dab = NCC[C@H](N)C(=O)O
RESULT TYPE: AUC(0-t) (ng·h/mL)
Give the value, in units of ng·h/mL, as a plain number.

Find the recorded AUC(0-t) belonging to CC[C@H](C)CCCCC(=O)N[C@@H](CCN)C(=O)N[C@H](C(=O)N[C@@H](CCN)C(=O)N[C@H]1CCNC(=O)[C@H]([C@@H](C)O)NC(=O)[C@H](CCN)NC(=O)[C@H](CCN)NC(=O)[C@H](CC(C)C)NC(=O)[C@@H](Cc2ccccc2)NC(=O)[C@H](CCN)NC1=O)[C@@H](C)O [PB1, polymyxin B1] (X1-[Dab]T[Dab][Dab][Dab][dF]L[Dab][Dab]T; lactam 4-C) and report it.
28400

====

# EXPERIMENT: Kidney exposure after IV polymyxin liposome or solution (USP)
# Assay type: in vivo, mice
# MEASUREMENT SETUP: female, ND4 Swiss Webster, mouse, in vivo, iv, 3 mg/kg, kidney, mice, IV 3 mg/kg polymyxin solution (USP), n = 24; read-out: AUC0-6 h, kidney
Where a SMILES comes first, the peptide text is derived from it. Bridges are numbered along the chain shown (N, C = ends). [ ]: non-standard residue; d: D form. The star is where a group is joined. X1 = CC[C@H](C)CCCCC(=O)*; Dab = NCC[C@H](N)C(=O)O
RESULT TYPE: AUC(0-t) (ng·h/mL)
# unit: ng·h/mL | format: bare number

Given the entry CC[C@H](C)CCCCC(=O)N[C@@H](CCN)C(=O)N[C@H](C(=O)N[C@@H](CCN)C(=O)N[C@H]1CCNC(=O)[C@H]([C@@H](C)O)NC(=O)[C@H](CCN)NC(=O)[C@H](CCN)NC(=O)[C@H](CC(C)C)NC(=O)[C@@H](Cc2ccccc2)NC(=O)[C@H](CCN)NC1=O)[C@@H](C)O [PB1, polymyxin B1] (X1-[Dab]T[Dab][Dab][Dab][dF]L[Dab][Dab]T; lactam 4-C) , report its measured AUC(0-t).
34200

====

# EXPERIMENT: Serum pharmacokinetics after intravenous polymyxin B liposomes or aqueous solution (USP)
# Type: in vivo, Swiss Webster mice
# MEASUREMENT SETUP: female, ND4 Swiss Webster, mouse, in vivo, iv, 3 mg/kg, serum, mice, IV polymyxin B solution (USP) approx. 3 mg/kg, n = 4, normalized by dose; read-out: AUC0-6 h
Where a SMILES comes first, the peptide text is derived from it. Bridges are numbered along the chain shown (N, C = ends). [ ]: non-standard residue; d: D form. The star is where a group is joined. X1 = CC[C@H](C)CCCCC(=O)*; Dab = NCC[C@H](N)C(=O)O
RESULT TYPE: AUC(0-t) (ng·h/mL)
Write down the numeric answer in ng·h/mL and omit the unit.

Name the recorded AUC(0-t) for CC[C@H](C)CCCCC(=O)N[C@@H](CCN)C(=O)N[C@H](C(=O)N[C@@H](CCN)C(=O)N[C@H]1CCNC(=O)[C@H]([C@@H](C)O)NC(=O)[C@H](CCN)NC(=O)[C@H](CCN)NC(=O)[C@H](CC(C)C)NC(=O)[C@@H](Cc2ccccc2)NC(=O)[C@H](CCN)NC1=O)[C@@H](C)O [PB1, polymyxin B1] (X1-[Dab]T[Dab][Dab][Dab][dF]L[Dab][Dab]T; lactam 4-C) .
2760

====

# EXPERIMENT: Serum pharmacokinetics after intravenous polymyxin B liposomes or aqueous solution (USP)
# Assay type: in vivo, Swiss Webster mice
# MEASUREMENT SETUP: female, ND4 Swiss Webster, mouse, in vivo, 3 mg/kg; serum, mice, IV polymyxin B liposomes, one-compartment model; read-out: T1/2 (elimination half-life) (converted)
Where a SMILES comes first, the peptide text is derived from it. Bridges are numbered along the chain shown (N, C = ends). [ ]: non-standard residue; d: D form. The star is where a group is joined. X1 = CC[C@H](C)CCCCC(=O)*; Dab = NCC[C@H](N)C(=O)O
RESULT TYPE: half-life (min)
Report the figure in min without appending any unit label.

I am curious: what half-life value has been reported for CC[C@H](C)CCCCC(=O)N[C@@H](CCN)C(=O)N[C@H](C(=O)N[C@@H](CCN)C(=O)N[C@H]1CCNC(=O)[C@H]([C@@H](C)O)NC(=O)[C@H](CCN)NC(=O)[C@H](CCN)NC(=O)[C@H](CC(C)C)NC(=O)[C@@H](Cc2ccccc2)NC(=O)[C@H](CCN)NC1=O)[C@@H](C)O [PB1, polymyxin B1] (X1-[Dab]T[Dab][Dab][Dab][dF]L[Dab][Dab]T; lactam 4-C) ?
36
